Reported MIC E. faecium ATCC 700221 values are given for each entry in this list.
- Test system: E. faecium ATCC 700221
- assay_method_text: Broth microdilution MIC/MBC, E. faecium
- Format: cell-based, Enterococcus faecium
- measurement_context: value before the parentheses; two values = two repeats
metric_name: MIC E. faecium ATCC 700221 (µM)

* CC(=O)OCC1O[C@@H]([S][Au-][P+](c2ccccc2)(c2ccccc2)c2ccccc2)C(OC(C)=O)[C@@H](OC(C)=O)[C@@H]1OC(C)=O (stereo partly shown) | 5
* CP(C)C.[Cl][Au] [Compound 24, (Trimethylphosphine)gold Chloride] | 0.4
* CC[P+](CC)(CC)[Au-][S]CC(F)(F)F | 0.6
* CC(=O)OCC1O[C@@H]([S][Au-][P+](c2ccc(C(F)(F)F)cc2)(c2ccc(C(F)(F)F)cc2)c2ccc(C(F)(F)F)cc2)C(OC(C)=O)[C@@H](OC(C)=O)[C@@H]1OC(C)=O (stereo partly shown) | 31
* CCCC[PH](CCCC)(CCCC)[Au][Cl] [Compound 26, (Tri-n-butylphosphine)gold Chloride] | 5
* COc1ccc([P+]([Au-][Cl])(c2ccc(OC)cc2)c2ccc(OC)cc2)cc1 | 3
